Target: CBP/p300 KIX domain (Mus musculus, UniProt P45481)
Sequence (P45481 586-665): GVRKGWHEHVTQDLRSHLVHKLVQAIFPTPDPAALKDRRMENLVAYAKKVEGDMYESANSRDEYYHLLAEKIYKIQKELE
Assay: PrOF NMR ligand titration
reported-property: pKd
Numbers only, as −log10 of the molar value.

The recorded pKd for CC(C(=O)O)c1ccc(-c2ccccc2)c(F)c1 (stereo not shown) is 2.23

Values from paper PMC4423596
